test details: Resistance to degradation in 25% fetal bovine serum
Type: in vitro ADME
cond: 25% fetal bovine serum in water, 37 °C, 30 min; HPLC peak area vs t = 0 h; triplicate; read-out: peptide remaining intact after 30 min
Where no end group is shown, it is not given here.
quantity name: remaining at 0.5 h (%)
Report only the number, with the unit % understood.

**Query** Please report the recorded remaining at 0.5 h for ALGKFWPKIKSLF-NH2 [AFPK-IsCT1] .
**Result** 50

**Query** Please report the recorded remaining at 0.5 h for H-ILKKIWKGKKSLF-NH2 [KKK-IsCT1] .
**Result** 50

----------
Test system: SCC-25 cells
test details: MTT cell viability
Format: cell-based
cond: treatment 24 and 48 h (time of IC50 not given), absorbance 540 nm, N/IC50 = no IC50 for the tested concentrations, no toxicity, read-out: IC50
quantity name: IC50 (µM)
Report only the number, with the unit µM understood.

**Query** Please report the recorded IC50 for H-ILKKIWKPIKKLF-NH2 [IsCT-P] .
**Result** 81.3

----------
test details: Resistance to degradation in 25% fetal bovine serum
Assay type: in vitro ADME
cond: 25% fetal bovine serum in water, 37 °C, 4 h; HPLC peak area vs t = 0 h; triplicate; read-out: peptide remaining intact after 4 h
quantity name: remaining at 4 h (%)
Report only the number, with the unit % understood.

**Query** Please report the recorded remaining at 4 h for H-ILKKIWKPIKKLF-NH2 [IsCT-P] .
**Result** 18

----------
Tested on: SCC-25 tumor cells
test details: Cell cycle phase and DNA fragmentation analysis (flow cytometry)
Format: cell-based
cond: 24 h, IsCT-P and AC-AFPK-IsCT1 at IC50, others 100 µM
quantity name: fragmented DNA (%)
Report only the number, with the unit % understood.

**Query** Form field: fragmented DNA recorded for H-ILKKIWKPIKKLF-NH2 [IsCT-P] with SCC-25 tumor cells (enter value)
**Result** 32.4

**Query** Form field: fragmented DNA recorded for Ac-ALGKFWPKIKSLF-NH2 [AC-AFPK-IsCT1] with SCC-25 tumor cells (enter value)
**Result** 16.5

**Query** Form field: fragmented DNA recorded for Ac-ILKKIWKGKKSLF-NH2 [AC-KKK-IsCT1] with SCC-25 tumor cells (enter value)
**Result** 12.4

**Query** Form field: fragmented DNA recorded for H-ILKKIWKGKKSLF-NH2 [KKK-IsCT1] with SCC-25 tumor cells (enter value)
**Result** 19
